assay: Elimination half life in Sprague-Dawley rat at 1 mg/kg, iv administered as single dose; type: ADME, organism-based; design: dose 1 mg/kg, route intravenous; conditions: in vivo, read-out: beta t1/2 (converted)
assay_readout: half-life (h)
Answer in h, number only, no unit symbol.

Some entries whose results are on file:
COc1c2c(c(O)c3cc(CNC4CC4)ccc13)C(=O)C1=C(O)[C@]3(O)C(=O)C(C(N)=O)=C(O)[C@@H](N(C)C)[C@@H]3C[C@@H]1C2 2.17
CN(C)c1cc(NC(=O)CNC(C)(C)C)c(O)c2c1C[C@H]1C[C@H]3[C@H](N(C)C)C(O)=C(C(N)=O)C(=O)[C@@]3(O)C(O)=C1C2=O 4.6
CC(C)CNCc1ccc2cc3c(c(O)c2c1)C(=O)C1=C(O)[C@]2(O)C(=O)C(C(N)=O)=C(O)[C@@H](N(C)C)[C@@H]2C[C@@H]1C3 5.87
CN(C)[C@@H]1C(O)=C(C(N)=O)C(=O)[C@@]2(O)C(O)=C3C(=O)c4c(cc5ccc(CN6CC(F)C6)cc5c4O)C[C@H]3C[C@@H]12 3.35
COc1c2c(c(O)c3cc(CN4CC(F)C4)ccc13)C(=O)C1=C(O)[C@]3(O)C(=O)C(C(N)=O)=C(O)[C@@H](N(C)C)[C@@H]3C[C@@H]1C2 1.5

Then this compound:
Per the record, `CN(C)[C@@H]1C(O)=C(C(N)=O)C(=O)[C@@]2(O)C(O)=C3C(=O)c4c(c(F)c5ccc(CN6CC(F)C6)cc5c4O)C[C@H]3C[C@@H]12` has half-life of 2.22
